IC50 overview
Molecular target: glucocorticoid receptor (GR), recombinant full-length receptor protein (Homo sapiens, UniProt P04150)
Construct: 4 nM recombinant, full-length receptor protein was incubated with increasing concentrations of GR ligand
Sequence (P04150 whole entry): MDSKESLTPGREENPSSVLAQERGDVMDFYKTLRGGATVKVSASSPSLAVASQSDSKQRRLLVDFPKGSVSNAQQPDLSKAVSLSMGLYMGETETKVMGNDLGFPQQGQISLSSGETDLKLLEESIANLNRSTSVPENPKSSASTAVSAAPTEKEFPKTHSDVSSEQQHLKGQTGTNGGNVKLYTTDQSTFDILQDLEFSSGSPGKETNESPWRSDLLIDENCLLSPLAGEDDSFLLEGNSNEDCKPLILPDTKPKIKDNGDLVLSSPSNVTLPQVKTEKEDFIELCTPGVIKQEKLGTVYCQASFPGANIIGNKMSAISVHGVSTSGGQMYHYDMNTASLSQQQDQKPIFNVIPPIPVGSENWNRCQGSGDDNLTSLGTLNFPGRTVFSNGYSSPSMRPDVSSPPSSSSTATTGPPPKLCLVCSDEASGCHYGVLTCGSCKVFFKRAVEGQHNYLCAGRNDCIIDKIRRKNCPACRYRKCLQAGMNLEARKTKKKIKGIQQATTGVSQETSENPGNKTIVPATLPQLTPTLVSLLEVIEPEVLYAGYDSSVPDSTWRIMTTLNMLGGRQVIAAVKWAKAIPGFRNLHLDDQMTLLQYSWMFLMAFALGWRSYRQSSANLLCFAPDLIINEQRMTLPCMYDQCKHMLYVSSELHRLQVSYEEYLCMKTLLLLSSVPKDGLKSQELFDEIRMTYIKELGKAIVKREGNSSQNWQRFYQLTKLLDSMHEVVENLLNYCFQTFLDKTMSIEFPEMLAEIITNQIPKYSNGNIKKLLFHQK
Assay: Glucocorticoid receptor binding assay (fluorescence polarization kit)
Conditions: 4 nM receptor, 2.5 nM Fluormone GS1 tracer, 2h room temperature, read-out: GR binding ABS IC50
metric: IC50

{"compound": "Cc1ccc([C@@H](Oc2ccc(C(=O)N[C@H]3CCCN(C(=O)O[C@H]4COC(=O)C4)C3)nc2)[C@H](C)NC(=O)C(F)(F)F)cc1 [Compound 76]", "endpointResult": "< 0.1 µM"}
{"compound": "C[C@H](NC(=O)C1CCCO1)[C@H](Oc1ccc(C(=O)O[C@H]2CCCN(C(=O)C3COC(=O)C3)C2)cc1)c1ccc(C2CC2)cc1 (stereo in doubt) [Compound 79]", "endpointResult": "< 0.1 µM"}
{"compound": "C[C@H](NC(=O)c1ccon1)[C@H](Oc1ccc(C(=O)O[C@H]2CCCN(C(=O)[C@H]3COC(=O)C3)C2)cc1)c1ccc(C2CC2)cc1 [Compound 51]", "endpointResult": "< 0.1 µM"}
{"compound": "C[C@H](NC(=O)c1cnsn1)[C@H](Oc1ccc(C(=O)O[C@H]2CCCN(C(=O)[C@H]3COC(=O)C3)C2)cc1)c1ccc(C2CC2)cc1 [Compound 25]", "endpointResult": "< 0.1 µM"}
{"compound": "C[C@H](NC(=O)c1ccno1)[C@H](Oc1ccc(C(=O)O[C@H]2CCCN(C(=O)[C@H]3COC(=O)C3)C2)cc1)c1ccc(C2CC2)cc1 [Compound 54]", "endpointResult": "< 0.1 µM"}
{"compound": "C[C@H](NC(=O)C(C)(C)O)[C@H](Oc1ccc(C(=O)N[C@H]2CCCN(C(=O)[C@H]3COC(=O)C3)C2)nc1)c1ccc(C2CC2)cc1 [Compound 15]", "endpointResult": "> 0.3 µM"}
{"compound": "CC[C@H](O)C(=O)N[C@@H](C)[C@H](Oc1ccc(C(=O)N[C@H]2CCCN(C(=O)[C@H]3COC(=O)C3)C2)nc1)c1ccc(C2CC2)cc1 [Compound 10]", "endpointResult": "0.1 to 0.3 µM"}
{"compound": "Cc1ncsc1C(=O)N[C@@H](C)[C@H](Oc1ccc(C(=O)O[C@H]2CCCN(C(=O)[C@H]3COC(=O)C3)C2)cc1)c1ccc(C2CC2)cc1 [Compound 30]", "endpointResult": "< 0.1 µM"}
{"compound": "C[C@H](NC(=O)[C@@H]1CCCO1)[C@H](Oc1ccc(C(=O)O[C@H]2CCCN(C(=O)[C@H]3COC(=O)C3)C2)cc1)c1ccc(C2CC2)cc1 [Compound 78]", "endpointResult": "< 0.1 µM"}
{"compound": "C[C@H](NC(=O)c1cn(C)cn1)[C@H](Oc1ccc(C(=O)O[C@H]2CCCN(C(=O)[C@H]3COC(=O)C3)C2)cc1)c1ccc(C2CC2)cc1 [Compound 43]", "endpointResult": "< 0.1 µM"}
{"compound": "CCc1ccc([C@@H](Oc2ccc(C(=O)N[C@H]3CCCN(C(=O)[C@H]4COC(=O)C4)C3)nc2)[C@H](C)NC(=O)C(F)(F)F)cc1 [Compound 66]", "endpointResult": "< 0.1 µM"}
{"compound": "C[C@H](NC(=O)c1ccon1)[C@H](Oc1ccc(C(=O)N[C@H]2CCCN(C(=O)[C@H]3COC(=O)C3)C2)nc1)c1ccc(C2CC2)cc1 [Compound 23]", "endpointResult": "< 0.1 µM"}
